meta.source: ChEMBL document CHEMBL3797048

run.description: Octanol-water partition coefficient, logP of the compound after 1 hr by UV-vis spectrophotometric analysis
Assay type: physicochemical
Would you kindly list logP at 1 h for each of these compounds?
Field format: numeric only.

# input compound: COC(=O)[C@H](Cc1c[nH]c2ccccc12)NCc1c2c(O)c3c(O)c(C)c4c(c3c1O)C(=O)[C@@](C)(O/C=C/[C@H](OC)[C@@H](C)[C@@H](OC(C)=O)[C@H](C)[C@H](O)[C@H](C)[C@@H](O)[C@@H](C)/C=C/C=C(/C)C(=O)N2)O4 ; wanted: its logP at 1 h
2.22

Another: CCOC(=O)[C@H](Cc1ccccc1)NCc1c2c(O)c3c(O)c(C)c4c(c3c1O)C(=O)[C@@](C)(O/C=C/[C@H](OC)[C@@H](C)[C@@H](OC(C)=O)[C@H](C)[C@H](O)[C@H](C)[C@@H](O)[C@@H](C)/C=C/C=C(/C)C(=O)N2)O4
2.63

Lookup CO[C@H]1/C=C/O[C@@]2(C)Oc3c(C)c(O)c4c(O)c(c(CN[C@@H](Cc5c[nH]c6ccccc56)C(=O)OCc5ccccc5)c(O)c4c3C2=O)NC(=O)/C(C)=C\C=C\[C@H](C)[C@H](O)[C@@H](C)[C@@H](O)[C@@H](C)[C@H](OC(C)=O)[C@@H]1C
2.72

Then this compound: COC(=O)[C@H](Cc1cnc[nH]1)NCc1c2c(O)c3c(O)c(C)c4c(c3c1O)C(=O)[C@@](C)(O/C=C/[C@H](OC)[C@@H](C)[C@@H](OC(C)=O)[C@H](C)[C@H](O)[C@H](C)[C@@H](O)[C@@H](C)/C=C/C=C(/C)C(=O)N2)O4
1.72
